system: MOLT-4 leukemia; test: NCI tumour cell line growth inhibition, 48 h
The reader will find reported TGI values listed item by item below.

Use the examples below as a reference point.
1) CN(C)CC/C(=N\Nc1c(F)c(F)c(F)c(F)c1F)c1ccccc1: > 100 µM
2) COc1cc(/C=C2\CCC(C)C3=C(c4cc(OC)c(OC)c(OC)c4)C(C#N)=C(N)OC32)cc(OC)c1OC (stereo not drawn): > 49 µM
3) CCOC(=O)C(=O)Nc1cccc(Cl)c1C: > 100 µM
4) COc1ccc(C(=O)/C=C/c2ccc(OCc3ccc(Cl)cc3)cc2)cc1OC: > 1000 µM
5) NCCSCC(N)C(=O)O (stereo not drawn): > 497 µM
6) Cc1ccc(C2C(Cl)C(=O)N2n2cnc3ccccc3c2=O)cc1 (stereo not drawn): > 100 µM
7) O=C(Cc1nc2cccnc2nc1/C=C(\O)c1ccccc1)c1ccccc1: > 100 µM
8) C=CCN1C(=O)C(=O)N(CC=C)C(=O)C1=O: > 100 µM

# get_value(readout='TGI', item= CSC1(C)CC2C(CC1N1CCOCC1)C2(C)C (stereo not drawn) ) > 100 µM

====

The reader will find reported TGI values listed item by item below.
test system: SF-295 CNS; assay: NCI tumour cell line growth inhibition, 48 h

Use the examples below as a reference point.
1. CCOC(=O)c1c(O)cc(=O)[nH]c1N1CCOCC1: > 100 µM
2. C=C(C)C(=O)OC1C[C@H](COC(C)=O)C2CC=C(C)C2C2OC(=O)C(=C)[C@H]12 (some centres not stated): 33.8 µM
3. CCOC(=O)[C@@]12C(C)=CC(=O)O[C@]1(C)C[C@H]2C#N: > 100 µM
4. Nc1nc(Cl)c(/C=N\O)c(NCC2(CO)CC(=O)C2)n1: > 100 µM
5. COc1ccc(OC)c(Nc2nc3ccccc3c3c2-c2ccc(OC)cc2C3=O)c1: > 100 µM
6. Cn1ccnc1C(=O)/C=C/c1ccc(C(=O)Nc2ccccc2F)cc1: 16.3 µM

# get_value(readout='TGI', item= CC(=O)Oc1cc2c[n+](C)c3c4cc(OC(C)=O)c(OC(C)=O)cc4ccc3c2cc1OC(C)=O ) > 57.8 µM

====

test system: HS 578T breast; test: NCI tumour cell line growth inhibition, 48 h
The reader will find reported TGI values listed item by item below.

1. Clc1ccc(Cl)c(N=Nc2cc3c4c(c2)CCCN4CCC3)c1: > 10 µM
2. CO[C@]12C#CC=CC#C[C@@H](O)[C@]3(CCC1)O[C@@]23c1cccc(O)c1: > 100 µM
3. Cn1ncc(NCCn2cnc3c2c(=O)n(C)c(=O)n3C)c(Cl)c1=O: > 100 µM
4. C[C@]12CC[C@@H]3c4ccc(OS(N)(=O)=O)cc4CC[C@H]3[C@@H]1CCC2=O: > 100 µM
5. COC(=O)CCCc1ccc2c(c1)CC1(Cc3ccccc3C1)C2: > 100 µM

Param readout= TGI; system= HS 578T breast; entry= COc1ccc(C(=O)/C=C/c2ccc(OCc3ccc(Cl)cc3)cc2)cc1OC ; returns value. > 1000 µM

Item: Oc1cccc2cc(Cl)cnc12 > 83.5 µM

Item: COc1ccc(NC(=O)c2sc3nc(C)c(C(=O)/C=C/c4ccccc4)cc3c2N)cc1 > 50 µM

====

system: U251 CNS; experiment: NCI tumour cell line growth inhibition, 48 h
The reader will find reported TGI values listed item by item below.

Use the examples below as a reference point.
1. O=C(/C=C/c1ccc2c(c1)OCO2)NCc1ccco1: > 100 µM
2. N#CC1Sc2ccccc2-n2cccc21 (stereo not drawn): > 100 µM
3. CCOC(=O)C(C)(C)Oc1ccc(Cl)cc1: > 1000 µM
4. NCCOc1ncccc1/C=C1\C2C=CC=CC2C2C=CC(F)=CC12 (stereo not drawn): 2.06 µM
5. c1ccc(C2=NOC3COc4ccccc4OCC23)cc1 (stereo not drawn): > 100 µM

# get_value(readout='TGI', item= CC1(SCC(N)C(=O)O)CC(=O)NC1=O (stereo not drawn) ) > 100 µM

Item: COC(=O)[C@@H](NC1(c2ccccc2)c2ccccc2-c2ccccc21)[C@H](OC(=O)[C@H]1CCCN1S(=O)(=O)c1ccccc1)C(=O)OC > 100 µM

Item: CC(C)(C)C1CCC2c3c([nH]c4ccccc34)C3C(=O)N(c4ccc(C(=O)O)cc4)C(=O)C3C2C1 (stereo not drawn) 26.2 µM

====

system: UACC-257 melanoma; test: NCI tumour cell line growth inhibition, 48 h
The reader will find reported TGI values listed item by item below.

# get_value(readout='TGI', item= COc1cc2c(cc1OCCCCOc1cc3nc(C)nc(Cl)c3cc1OC)N=C[C@@H]1CCCN1C2=O ) 4.04 µM

Item: O=C(N/N=C\c1cc(Cl)ccc1O)c1ccncc1 > 100 µM

Item: COc1ccc2c(c1)-c1c(c3cc(OC)ccc3n1CCN1CCOCC1)CC2 > 100 µM

Item: Cc1ccc(N=Nc2c(O)c(S(=O)(=O)O)cc3cc(S(=O)(=O)O)ccc23)c(C)c1 > 100 µM

Item: Cc1cc(C)n(-c2nc3ccccc3c(=O)[nH]2)n1 > 100 µM

Item: C=C1CC[C@@H]2C(C)(C)C(O)CCC2(C)C1COc1ccc2ccc(=O)oc2c1 (stereo partly specified) 32.6 µM

Item: CCN(CC)CCCNc1ccc2ncn3c4ccc(O)cc4c(=O)c1c23 23.8 µM

Item: CCOC(=O)C(=O)Nc1cccc(Cl)c1C > 100 µM

Item: O=c1[nH]c2ccccc2nc1CBr 27.3 µM

Item: COC(=O)N1c2ccc3c(nc(Cc4ccccc4)n3[C@H]3CCC[C@H](C(=O)O)C3)c2CC[C@@H]1C > 100 µM

Item: O=[N+]([O-])c1ccc(/C(=C\c2ccccc2)Cn2ccnc2)cc1 > 100 µM

Item: CCOC(=O)c1c(O)cc(=O)[nH]c1N1CCOCC1 > 100 µM

Item: COc1cc2c3c(n(CCCNCCCNCCCn4c5c(c6cc(OC)c(OC)cc6c4=O)C(=O)c4ccccc4-5)c(=O)c2cc1OC)-c1ccccc1C3=O > 100 µM

Item: CO[C@]12C#CC=CC#C[C@@H](O)[C@]3(CCC1)O[C@@]23c1cccc(O)c1 > 100 µM

Item: Cc1nnc2sc(Cc3cnc(N)s3)nn12 > 100 µM

====

The reader will find reported TGI values listed item by item below.
test system: TK-10 renal; assay: NCI tumour cell line growth inhibition, 48 h

Use the examples below as a reference point.
1. Cc1cc(C)n(-c2nc3ccccc3c(=O)[nH]2)n1: > 100 µM
2. Cn1ncc(NCCn2cnc3c2c(=O)n(C)c(=O)n3C)c(Cl)c1=O: > 100 µM
3. O=c1c2sc3ccccc3c2nnn1-c1ccc(F)c(Cl)c1: 13.8 µM
4. Cc1c(CN)c(C)c(CN)c(C)c1CN: > 100 µM
5. O=C1NC(=O)C2C1c1[nH]c3ccccc3c1C1CCCC12 (stereo not given): > 100 µM

# get_value(readout='TGI', item= C=C1C2CC[C@@](C)(O)C2[C@H]2OC(=O)C(=C)[C@@H]2C[C@H]1O (stereo not given in full) ) 37.8 µM

====

tested on: MCF7 breast; test: NCI tumour cell line growth inhibition, 48 h
The reader will find reported TGI values listed item by item below.

1. COc1cccc(C2SCC(=O)N2c2ccc(-c3ccc(-n4c(-c5ccccc5)nc5ccccc5c4=O)cc3)cc2)c1OC (centres undefined): > 100 µM
2. O=C1CS/C(=N/S(=O)(=O)c2ccc(N3N=C4c5ccccc5CC4C3c3cccs3)cc2)N(c2ccccc2)C1 (centres undefined): > 100 µM
3. COc1cccc(-c2cc(=O)c3cc(NC(C)=O)ccc3[nH]2)c1: > 100 µM
4. CN1N=C(c2ccncc2)OC1c1ccc(Cl)cc1Cl (centres undefined): > 100 µM
5. COc1ccc(OC)c(Nc2nc3ccccc3c3c2-c2ccc(OC)cc2C3=O)c1: > 100 µM
6. Cc1cc(C)c(S(=O)(=O)N2CCN(c3cc4c(cc3F)c(=O)c(C(=O)O)cn4C3CC3)CC2)c(C)c1: > 100 µM
7. O=P(Nc1ccccc1)(Oc1ccccc1)N1CCN(c2ccccc2)CC1 (centres undefined): 32.1 µM
8. COc1c(-c2ccccc2)oc2c(CP(=O)(OC)OC)cccc2c1=O: > 100 µM
9. O=C(Cc1nc2cccnc2nc1/C=C(\O)c1ccccc1)c1ccccc1: 27.6 µM
10. N#Cc1c(C#N)c(SSc2c(C#N)c(C#N)c(N)n2-c2ccc(F)cc2)n(-c2ccc(F)cc2)c1N: > 24.8 µM

# get_value(readout='TGI', item= COc1ccc(NC(=O)c2sc3nc(C)c(C(=O)/C=C/c4ccccc4)cc3c2N)cc1 ) 6 µM

Item: NC(=O)[C@@H](CCC(F)(F)F)N(Cc1ccc(-c2ncon2)cc1F)S(=O)(=O)c1ccc(Cl)cc1 > 100 µM

Item: Oc1cccc2cc(Cl)cnc12 > 100 µM

Item: N#Cc1ccccc1C#C/C=C\C#Cc1cccs1 45.9 µM
